Study target: Human TLR4 (Homo sapiens)
Construct: stably and individually express human TLR4, TLR7 or TLR9 full-length ORF cDNAs
Sequence (O00206 24-839): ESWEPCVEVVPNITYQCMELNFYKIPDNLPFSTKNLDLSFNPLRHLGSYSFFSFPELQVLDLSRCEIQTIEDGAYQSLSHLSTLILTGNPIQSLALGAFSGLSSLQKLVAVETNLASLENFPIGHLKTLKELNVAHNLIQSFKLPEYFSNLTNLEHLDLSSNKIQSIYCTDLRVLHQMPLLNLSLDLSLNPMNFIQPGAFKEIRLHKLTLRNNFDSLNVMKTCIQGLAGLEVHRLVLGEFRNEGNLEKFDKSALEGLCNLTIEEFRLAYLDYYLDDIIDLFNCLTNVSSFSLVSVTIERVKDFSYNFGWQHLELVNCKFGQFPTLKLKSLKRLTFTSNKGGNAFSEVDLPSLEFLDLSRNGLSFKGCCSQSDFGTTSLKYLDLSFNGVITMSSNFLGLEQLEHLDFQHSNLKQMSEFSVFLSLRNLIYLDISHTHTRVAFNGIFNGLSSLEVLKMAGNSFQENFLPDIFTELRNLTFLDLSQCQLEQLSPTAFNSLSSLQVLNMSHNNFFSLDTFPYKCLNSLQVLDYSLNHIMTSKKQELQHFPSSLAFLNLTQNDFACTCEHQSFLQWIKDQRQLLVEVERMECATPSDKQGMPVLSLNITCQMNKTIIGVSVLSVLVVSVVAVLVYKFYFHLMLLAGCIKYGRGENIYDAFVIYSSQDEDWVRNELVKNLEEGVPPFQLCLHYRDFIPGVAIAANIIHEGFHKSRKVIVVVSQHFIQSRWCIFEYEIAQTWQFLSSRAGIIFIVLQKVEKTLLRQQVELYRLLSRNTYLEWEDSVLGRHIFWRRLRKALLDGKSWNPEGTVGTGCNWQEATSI
Sequence (Q9Y6Y9 19-160 partner): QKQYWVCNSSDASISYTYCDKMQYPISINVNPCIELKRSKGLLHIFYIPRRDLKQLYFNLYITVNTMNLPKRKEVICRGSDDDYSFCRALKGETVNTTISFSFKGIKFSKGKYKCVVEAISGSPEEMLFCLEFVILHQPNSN
Test name: HEK-293 human TLR4 NF-kappaB luciferase reporter assay (LPS)
Stated conditions: ligand LPS, analyte NFkB-luciferase
Property: IC50

# C[C@@H]1CN(c2ccc(C#N)c3ncccc23)C[C@H](C(=O)N[C@H]2CNC[C@H]2F)O1.Cl [ER-899742, hydrochloride] with Human TLR4 (Homo sapiens): IC50 is > 10 µM

###

Study target: mouse TLR7 (Mus musculus)
Sequence (P58681 27-1050): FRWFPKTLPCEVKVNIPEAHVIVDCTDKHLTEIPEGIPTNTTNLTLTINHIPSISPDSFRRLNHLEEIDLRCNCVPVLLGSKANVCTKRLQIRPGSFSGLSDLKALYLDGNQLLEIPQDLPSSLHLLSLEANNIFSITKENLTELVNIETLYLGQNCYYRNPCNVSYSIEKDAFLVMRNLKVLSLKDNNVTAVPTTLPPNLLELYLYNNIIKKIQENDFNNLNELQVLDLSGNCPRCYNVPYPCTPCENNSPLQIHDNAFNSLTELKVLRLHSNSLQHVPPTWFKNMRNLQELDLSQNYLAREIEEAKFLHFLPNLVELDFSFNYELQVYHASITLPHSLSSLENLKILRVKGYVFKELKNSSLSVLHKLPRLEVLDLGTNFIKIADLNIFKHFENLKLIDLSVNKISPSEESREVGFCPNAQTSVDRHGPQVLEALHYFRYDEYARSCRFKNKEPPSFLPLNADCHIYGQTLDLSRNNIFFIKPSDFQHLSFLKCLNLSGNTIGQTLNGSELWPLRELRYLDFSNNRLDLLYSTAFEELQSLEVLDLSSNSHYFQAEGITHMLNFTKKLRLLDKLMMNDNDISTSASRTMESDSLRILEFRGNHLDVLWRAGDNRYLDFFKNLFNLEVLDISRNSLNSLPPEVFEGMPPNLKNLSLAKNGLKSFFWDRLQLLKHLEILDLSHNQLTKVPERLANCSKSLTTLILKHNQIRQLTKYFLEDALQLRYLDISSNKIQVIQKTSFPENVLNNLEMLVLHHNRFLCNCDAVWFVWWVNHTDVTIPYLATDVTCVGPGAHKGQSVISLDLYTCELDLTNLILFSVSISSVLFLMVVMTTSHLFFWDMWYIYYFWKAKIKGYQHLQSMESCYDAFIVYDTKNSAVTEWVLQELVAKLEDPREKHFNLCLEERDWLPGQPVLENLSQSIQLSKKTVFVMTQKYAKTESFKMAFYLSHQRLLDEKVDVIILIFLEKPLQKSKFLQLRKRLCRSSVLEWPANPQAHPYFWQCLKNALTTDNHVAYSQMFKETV
Test name: Short-term in vivo (STIV) assay: oral dosing, R848 s.c., plasma IL-6
Parameters: female BALB/c mice (Jackson Labs, Bar Harbor, Me.) were dosed by oral gavage; tissue Jackson Labs; host or cells: living female BALB/c mice; plasma IL-6 after s.c. R848
Stated conditions: 13 h; 33 mg/kg
Property: % Suppression vs. Vehicle (%)
Record the value in %, omitting the unit from your answer.

Solved entries (count: 2):
>  <Molecule>
CC1CN(c2ccc(C#N)c3ncccc23)CC(CN2CCC(N3CCOCC3)CC2)O1 (centres unmarked)

>  <Property>
% Suppression vs. Vehicle

>  <Unit text>
%

>  <Reported value>
98

$$$$
>  <Molecule>
C[C@@H]1CN(c2ccc(C#N)c3ncccc23)C[C@H](CN2CC[C@H](N3CCCC3)C2)O1

>  <Property>
% Suppression vs. Vehicle

>  <Unit text>
%

>  <Reported value>
0

$$$$

Let me check: CC1CN(c2ccc(C#N)c3ncccc23)CC(CN2CCC(NC(=O)C(C)C)CC2)O1 (centres unmarked) , system mouse TLR7 (Mus musculus), measured % Suppression vs. Vehicle is 0

Record CC(C)C(=O)NC1CN(C[C@H]2CN(c3ccc(C#N)c4ncccc34)C[C@@H](C)O2)C1 / mouse TLR7 (Mus musculus), % Suppression vs. Vehicle recorded as 42

So the reported % Suppression vs. Vehicle for CC1CN(c2ccc(C#N)c3ncccc23)CC(C(=O)NC2CCOCC2)O1 (centres unmarked) , on mouse TLR7 (Mus musculus), turned out to be 90

Sample CC1CN(c2ccc(C#N)c3ncccc23)CC(C(=O)NCC2CCCN2)O1 (centres unmarked) , system: mouse TLR7 (Mus musculus). Its % Suppression vs. Vehicle is 29

Entry CC1CN(c2ccc(C#N)c3ncccc23)CC(C(=O)NCC2CNCCO2)O1 (centres unmarked) , mouse TLR7 (Mus musculus) data, % Suppression vs. Vehicle value: 2

Case C[C@@H]1CN(c2ccc(C#N)c3ncccc23)C[C@H](CN2CCC(C(N)=O)CC2)O1 , mouse TLR7 (Mus musculus), % Suppression vs. Vehicle recorded as 9

Summary: CCNC(=O)C1CN(c2ccc(C#N)c3ncccc23)CC(C)O1 (centres unmarked) , mouse TLR7 (Mus musculus), % Suppression vs. Vehicle = 72

Lab note: molecule CC1CN(c2ccc(C#N)c3ncccc23)CC(C(=O)NCC(C)(C)N(C)C)O1 (centres unmarked) tested on mouse TLR7 (Mus musculus); recorded % Suppression vs. Vehicle was 73

Record CC1CN(c2ccc(C#N)c3ncccc23)CC(C(=O)NC2CCCNC2)O1 (centres unmarked) / mouse TLR7 (Mus musculus), % Suppression vs. Vehicle recorded as 3

Record for CC1CN(c2ccc(C#N)c3ncccc23)CC(C(=O)N2CC3(CCNC3)C2)O1 (centres unmarked) under target or system mouse TLR7 (Mus musculus): % Suppression vs. Vehicle reported as 0

% Suppression vs. Vehicle for mouse TLR7 (Mus musculus) with input C[C@@H]1CN(c2ccc(C#N)c3ncccc23)C[C@H](CN2CCN[C@@H](C)C2)O1 equals 37

Bench note, mouse TLR7 (Mus musculus): CC1CN(c2ccc(C#N)c3ncccc23)CC(C(=O)NC2CCNCC2)O1 (centres unmarked) , % Suppression vs. Vehicle reads 2

Entry CC1CN(c2ccc(C#N)c3ncccc23)CC(CN2CCC(NC(=O)c3ccccc3)CC2)O1 (centres unmarked) , mouse TLR7 (Mus musculus) data, % Suppression vs. Vehicle value: 87

Observed % Suppression vs. Vehicle on mouse TLR7 (Mus musculus), entry CC[C@H]1CN(C[C@H]2CN(c3ccc(C#N)c4ncccc34)C[C@@H](C)O2)CCN1 , equals 31

// returns % Suppression vs. Vehicle for CCNC(=O)C1CCN(CC2CN(c3ccc(C#N)c4ncccc34)CC(C)O2)CC1 (centres unmarked) with mouse TLR7 (Mus musculus); value = 22
